Each entry below carries its reported Emax.
Target: 5-HT2A (Homo sapiens)
Sequence (P28223 whole entry): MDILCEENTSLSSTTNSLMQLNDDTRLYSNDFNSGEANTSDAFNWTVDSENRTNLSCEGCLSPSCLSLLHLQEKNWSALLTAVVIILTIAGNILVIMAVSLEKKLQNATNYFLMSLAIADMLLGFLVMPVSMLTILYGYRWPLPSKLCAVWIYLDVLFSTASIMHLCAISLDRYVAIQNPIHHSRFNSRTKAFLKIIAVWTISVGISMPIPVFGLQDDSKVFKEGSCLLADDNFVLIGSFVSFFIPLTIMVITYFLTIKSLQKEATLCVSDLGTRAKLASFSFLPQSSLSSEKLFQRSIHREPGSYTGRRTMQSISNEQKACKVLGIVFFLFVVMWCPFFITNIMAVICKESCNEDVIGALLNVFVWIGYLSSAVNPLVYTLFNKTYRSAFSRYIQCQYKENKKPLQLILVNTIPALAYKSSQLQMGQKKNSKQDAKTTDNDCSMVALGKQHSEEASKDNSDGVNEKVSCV
Experiment: Ca2+ flux assay, 5-HT2A
Type: cell-based
Design: expressed in transfected cells
Settings: read-out: 5-HT2A Emax % 5-HT, Ca2+ flux

compound="COc1cc([N+](=O)[O-])c(OC)cc1CCNCc1ccccc1C(F)(F)F [25N-NBCF3 (14)]" observed="≤ 77%"
compound="COc1cc([N+](=O)[O-])c(OC)cc1CCNCc1ccccc1-c1ccccc1 [25N-NBPh (17)]" observed="< 10%"

GET /values?readout=Emax&item= COc1cc([N+](=O)[O-])c(OC)cc1CCNCc1ccccc1[N+](=O)[O-] [25N-NBNO2 (15)]
≤ 77%
